Every entry's value here was drawn from paper PMC9482650.

Target: MAGI2_4, Q86UL8
Sequence (Q86UL8 772-865): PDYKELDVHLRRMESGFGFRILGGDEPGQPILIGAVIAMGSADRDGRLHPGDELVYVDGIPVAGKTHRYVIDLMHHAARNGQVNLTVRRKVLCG
Experiment: holdup assay
Design: key: below the threshold = too weak to quantify, mostly under pKd 3.1 to 4
Settings: plain residues with an end cap or a label only (N-terminal biotin on a linker: ado-ado)
assay_endpoint: pKd

The cases that follow already have their pKd on record.
LPPPESESKV [KCNJ9, Q92806] | below the threshold
EAVTVESTSL [SLC22A11, Q9NSA0] | below the threshold
QLKSGRDSTV [TMEM178A, Q8NBL3] | 3.92
VYEVPVETKF [SLC26A3, P40879] | below the threshold
DFKHTKSFII [JAM2, P57087] | below the threshold
TNSKQGETTV [FZD1, Q9UP38] | 4.13
SKQFDKNAYV [CLDN10, P78369] | below the threshold

Request: Consider the binder SQDPKKPSRV [CBY2, Q8NA61] and give its measured pKd.
Response: below the threshold
